test system: LOX IMVI melanoma; assay: NCI-60 one-dose screen, 48 h; settings: 10 µM unless noted
Compounds without any hit were thinned out: in the full panel of roughly 83,000, 20% have a hit. Calls of active or inactive are those of the source. The calls were made as follows: active = growth percent below 10; inactive = the rest.
The reply should be one of these categories: T = active, F = inactive

How did this test come out for C=C(C)C1CCC2(C(=O)O)CCC3(C)C(CCC4C5(C)CCC(OC(=O)NCc6ccccc6)C(C)(C)C5CCC43C)C12 (stereo not drawn) ?
F

Would you kindly repeat that for `C=CCCCCOc1ccccc1-c1cnc(OCCCCC=C)n1C` ?
F

Would you kindly repeat that for `Nc1cc(N)c(N=Nc2ccc(S(=O)(=O)O)cc2)cc1N=Nc1ccc(-c2ccc(N=Nc3ccc(O)c(C(=O)O)c3)cc2)cc1` ?
F

Would you kindly repeat that for `Cc1ccc(S(=O)(=O)NCCCNc2nccc(-c3c(-c4cccc(F)c4)nc4occn34)n2)cc1` ?
F

====

tested on: UACC-62 melanoma; assay: NCI-60 one-dose screen, 48 h; details: 10 µM unless noted
The panel holds about 83,000 compounds, 20% with a hit somewhere; the sample as a whole holds those more often. Calls of active or inactive are those of the source. Rule for the calls: active = growth percent below 10; inactive = the rest.
The reply should be one of these categories: active, inactive

Examples with answers:
Molecule	Assigned Class
O=[N+]([O-])c1ccc(O)c(-c2nc3ccccc3s2)c1	inactive
O=C(CSc1nccc(Nc2ccc(S(=O)(=O)Nc3ccccn3)cc2)n1)c1ccc(Cl)cc1	inactive
O=C(O)CC1CCCCC1c1ccccc1 (centres undefined)	inactive
C=C1C(=O)O[C@H]2[C@H]1CC/C(COC(=O)NCc1ccc(Cn3c(=O)sn(-c4ccc(Cl)cc4)c3=O)cc1)=C\CC[C@@]1(C)O[C@@H]21	inactive
CCOC(=O)n1cc(C2=C(c3ccc(OC)c(OC)c3)COC2=O)c2ccccc21	inactive
C=C(C)[C@@H]1CC[C@]2(C(=O)NCCCN)CC[C@]3(C)[C@H](CC[C@@H]4[C@@]5(C)CC[C@H](O)C(C)(C)[C@@H]5CC[C@]43C)[C@@H]12	active
CC(C)CSc1ncnc2nc[nH]c12	inactive
O=C(Nc1cccnc1)c1ccc2ccc3ccc(C(=O)Nc4cccnc4)nc3c2n1	inactive

# evaluate next
How did this test come out for CCN(CC)c1ccc2cc(C(Nc3ccc(Cl)cc3)c3nnnn3C(C)(C)C)c(=O)oc2c1 (centres undefined) ?
inactive

====

Provide the recorded growth for the entries that follow.
tested on: NCI-H23 lung; test: NCI-60 one-dose screen, 48 h (100 = growth as untreated, 0 = no growth, -100 = all killed); conditions: 10 µM unless noted
About 83,000 compounds went through this panel and 20% of them were active in at least one assay; those are over-represented in the sample as a whole. The source made the active and inactive calls. Rule for the calls: active = growth percent below 10; inactive = the rest.

Take a look at these entries with their results.
Compound	Recorded Measurement
CCOc1cc(NC(=O)c2ccccc2)c(OCC)cc1N	102% (inactive)
COc1ccc(C(=O)CSc2nccc(Nc3ccc(C(=O)O)cc3)n2)cc1	99.2% (inactive)

Look up growth for the entries below, preserving their order.
1. O=C1NC(=O)C(Cc2ccc(OCc3ccc(-c4cc(F)c(F)c(F)c4)cc3)cc2)S1 (centres undefined)
2. Cn1cc(-c2nnc(-c3ccccc3)s2)c2cc(Br)cnc21
3. CC(C)C1=NOC(=O)C1=Cc1cn(-c2ccccc2)nc1-c1ccc(Cl)cc1
4. Cc1cccc(C[C@H](NC(=O)Nc2ccc(C)cc2F)C(=O)N[C@@H]2C(=O)N3C[C@H](O)C[C@H]3C(=O)N3CCN(C)C[C@H]3C(=O)N[C@@H](C)C(=O)N3C[C@H](C)C[C@H]3C(=O)O[C@H]2C)c1
5. CNc1cc(C(=O)O)nc(NC)n1
6. O=C(O)c1ccccc1C(F)(F)F
7. N#Cc1ccc(-c2ccc(COc3ccc(CC4SC(=O)NC4=O)cc3)cc2)cc1 (centres undefined)

1: 80.9% (inactive); 2: 85% (inactive); 3: 84.8% (inactive); 4: 38.1% (inactive); 5: 100% (inactive); 6: 66.7% (inactive); 7: 50.7% (inactive)
